Each record here notes measured Ki.
- target entity: human A3 adenosine receptor (Homo sapiens)
- Construct: expressed in transfected cells; host or cells: CHO cells (membranes)
- Sequence (P0DMS8 1-318): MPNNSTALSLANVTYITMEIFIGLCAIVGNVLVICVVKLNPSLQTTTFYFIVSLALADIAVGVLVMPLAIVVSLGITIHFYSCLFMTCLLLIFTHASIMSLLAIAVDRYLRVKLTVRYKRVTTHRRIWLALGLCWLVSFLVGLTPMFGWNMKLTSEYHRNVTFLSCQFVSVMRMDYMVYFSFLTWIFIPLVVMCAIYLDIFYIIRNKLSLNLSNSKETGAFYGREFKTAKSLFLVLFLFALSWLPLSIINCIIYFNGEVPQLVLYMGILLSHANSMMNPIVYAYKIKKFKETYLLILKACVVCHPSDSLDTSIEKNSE
- assay method text: [3H]MRE3008F20 binding to human A3 receptors expressed in CHO cells
parameter measured: Ki

molecule_smiles=Cn1nc(NC(=O)Cc2ccccc2)cc1-c1nc2c([nH]1)c(=O)n(C)c(=O)n2C test_result="> 1000 nM"
molecule_smiles=CCCn1c(=O)c2[nH]c(-c3cc(OCC(=O)Nc4ccc(C(=O)O)cc4)nn3C)nc2n(CCC)c1=O test_result="> 1000 nM"
molecule_smiles=CCCn1c(=O)c2nc(-c3cc(OCC(=O)Nc4ccc(Br)cc4)n(C)n3)[nH]c2n(CCC)c1=O test_result="> 1000 nM"
molecule_smiles=CCCn1c(=O)c2[nH]c(-c3cc(OCC(=O)Nc4ccc(C)c(C)c4)nn3C)nc2n(CCC)c1=O test_result="> 1000 nM"
molecule_smiles=CCCn1c(=O)c2[nH]c(-c3cc(NC(=O)Cc4ccc5c(c4)OCO5)nn3C)nc2n(CCC)c1=O test_result="> 1000 nM"
molecule_smiles=CCCn1c(=O)c2[nH]c(-c3cc(NC(=O)Nc4ccc(OC)cc4)nn3C)nc2n(CCC)c1=O test_result="> 1000 nM"
molecule_smiles=CCCn1c(=O)c2[nH]c(-c3cc(OCC(=O)Nc4ccc(C(=O)OCC)cc4)nn3C)nc2n(CCC)c1=O test_result="> 1000 nM"
molecule_smiles=CCCn1c(=O)c2[nH]c(-c3cc(NC(=O)Cc4ccc(Cl)cc4)nn3C)nc2n(CCC)c1=O test_result="> 1000 nM"
molecule_smiles=CCCn1c(=O)c2[nH]c(-c3cc(NC(=O)Cc4cccc(Cl)c4)nn3C)nc2n(CCC)c1=O test_result="> 1000 nM"
molecule_smiles=CCCn1c(=O)c2[nH]c(-c3cc(NC(=O)Cc4ccc([N+](=O)[O-])cc4)nn3C)nc2n(CCC)c1=O test_result="> 1000 nM"
molecule_smiles=CCCn1c(=O)c2[nH]c(-c3cc(OCC(=O)N4CCN(c5ccc(F)cc5)CC4)nn3C)nc2n(CCC)c1=O test_result="> 1000 nM"
molecule_smiles=CCCn1c(=O)c2[nH]c(-c3cc(NC(=O)Cc4cccc(F)c4)nn3C)nc2n(CCC)c1=O test_result="> 1000 nM"
molecule_smiles=CCCn1c(=O)c2[nH]c(-c3cc(NC(=O)[C@@H](C)c4ccccc4)nn3C)nc2n(CCC)c1=O test_result="> 1000 nM"
molecule_smiles=CCCn1c(=O)c2[nH]c(-c3cc(NC(=O)Cc4ccc(OCc5ccccc5)c(OC)c4)nn3C)nc2n(CCC)c1=O test_result="> 1000 nM"
molecule_smiles=CCCn1c(=O)c2[nH]c(-c3cc(OCC(=O)Nc4ccc(OC)cc4)no3)nc2n(CCC)c1=O test_result="> 1000 nM"
molecule_smiles=CCCn1c(=O)c2[nH]c(-c3cc(NC(=O)Cc4ccc(N(C)C)cc4)nn3C)nc2n(CCC)c1=O test_result="> 1000 nM"
